Test system: Sclerotinia sclerotiorum
Experiment: Inhibition of mycelial growth by fungicides in Petri dishes (growth medium + fungicide)
Assay type: cell-based
Settings: 10 ppm
Consider the following molecules and their measured Number of Sclerotinia Formed per Colony readings.

molecule	Number of Sclerotinia Formed per Colony
COc1ccnc(C(=O)N[C@H]2COC(=O)[C@H](Cc3ccccc3)[C@@H](OC(=O)C(C)C)[C@H](C)OC2=O)c1OCOC(=O)C(C)C [Compound I]	1.67
CC12CC1(C)C(=O)N(c1cc(Cl)cc(Cl)c1)C2=O (stereo not shown) [Procymidone, procymidone]	1.67
COC(=O)NC(=S)Nc1ccccc1NC(=S)NC(=O)OC [Thiophanate-Methyl, thiophanate-methyl]	0

Next molecule, Number of Sclerotinia Formed per Colony to be filled in.
GET /value?item= O=[N+]([O-])c1cc(C(F)(F)F)c(Cl)c([N+](=O)[O-])c1Nc1ncc(C(F)(F)F)cc1Cl [Fluazinam, fluazinam] &field=Number of Sclerotinia Formed per Colony returns 0
